Values from ChEMBL document CHEMBL3044586

# key: entry, value: deltaT
# Tested on: Rattus norvegicus
# Method: Presynaptic agonist activity at 5HT1A receptor in Rattus norvegicus Wistar (rat) assessed as change in rectal temperature at 10 mg/kg, ip measured after 120 min (reference value: 0.0 +/- 0.1 degC)
# Type: functional, organism-based
# Parameters: dose 10 mg/kg

{"columns": ["Molecule", "deltaT"],
 "data": [
  ["COc1ccc(NCCN2C(=O)NC(c3ccccc3)(c3ccccc3)C2=O)cc1", "-0.6 °C"],
  ["COc1ccc(NCCN2C(=O)OC(c3ccccc3)C2=O)cc1 (configuration not stated)", "-0.7 °C"],
  ["O=C1OC(c2ccccc2)C(=O)N1CCNc1ccc(O)cc1 (configuration not stated)", "-0.6 °C"],
  ["O=C1OC(c2ccccc2)C(=O)N1CCN1CCN(c2ccc(F)cc2)CC1 (configuration not stated)", "-0.5 °C"],
  ["O=C1OC(c2ccccc2)C(=O)N1CCNc1ccc(Cl)cc1 (configuration not stated)", "-0.5 °C"],
  ["O=C1NC(c2ccccc2)(c2ccccc2)C(=O)N1CCN1CCN(c2ccc(F)cc2)CC1", "-0.8 °C"],
  ["O=C1NC(c2ccccc2)(c2ccccc2)C(=O)N1CCNc1ccc(F)cc1", "-0.7 °C"]
]}
